molecular target: human TLR7 (Homo sapiens); assay: TLR7 inhibition reporter assay (HEK-Blue cells, SEAP reporter, gardiquimod stimulation); conditions: HEK-Blue cells overexpressing human TLR7, gardiquimod 7.5 μM
Sequence (Q9NYK1 27-1049): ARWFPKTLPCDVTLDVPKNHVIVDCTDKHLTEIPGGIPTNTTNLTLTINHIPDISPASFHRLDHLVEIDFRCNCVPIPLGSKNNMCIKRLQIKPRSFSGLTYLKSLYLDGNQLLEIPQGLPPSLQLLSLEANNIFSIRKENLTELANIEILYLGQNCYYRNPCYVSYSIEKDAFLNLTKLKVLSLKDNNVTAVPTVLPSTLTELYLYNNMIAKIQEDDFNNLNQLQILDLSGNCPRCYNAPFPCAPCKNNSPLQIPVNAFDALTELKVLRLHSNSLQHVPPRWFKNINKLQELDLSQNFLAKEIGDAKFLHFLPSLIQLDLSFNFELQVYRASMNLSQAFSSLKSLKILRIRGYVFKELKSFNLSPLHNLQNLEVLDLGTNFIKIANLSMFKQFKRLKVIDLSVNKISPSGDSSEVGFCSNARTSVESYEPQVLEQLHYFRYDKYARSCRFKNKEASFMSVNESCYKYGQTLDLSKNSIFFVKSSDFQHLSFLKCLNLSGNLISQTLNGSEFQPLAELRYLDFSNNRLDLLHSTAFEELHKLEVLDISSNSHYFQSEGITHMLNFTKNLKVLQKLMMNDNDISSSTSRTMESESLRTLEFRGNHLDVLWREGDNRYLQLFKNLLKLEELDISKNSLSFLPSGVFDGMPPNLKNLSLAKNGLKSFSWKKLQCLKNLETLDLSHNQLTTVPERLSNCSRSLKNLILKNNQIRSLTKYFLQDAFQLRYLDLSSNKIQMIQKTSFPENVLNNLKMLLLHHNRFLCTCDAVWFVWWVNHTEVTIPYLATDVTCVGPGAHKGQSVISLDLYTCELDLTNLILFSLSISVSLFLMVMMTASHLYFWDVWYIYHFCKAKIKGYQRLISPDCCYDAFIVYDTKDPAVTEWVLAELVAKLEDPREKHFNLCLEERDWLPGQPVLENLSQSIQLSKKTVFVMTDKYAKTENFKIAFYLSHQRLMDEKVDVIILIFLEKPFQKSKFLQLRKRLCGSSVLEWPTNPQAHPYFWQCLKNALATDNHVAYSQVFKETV
EXPERIMENTAL READOUT: IC50 (µM)
Response body: numeric value in µM, unit text excluded.

Examples from the recorded data:
COMPOUND: COc1ccc(-c2[nH]c3ccc(C4CCN(C(C)c5ccccc5)CC4)cc3c2C)cc1OC (stereo not shown)
TEST SYSTEM: human TLR7 (Homo sapiens)
DATA VALUE: 0.85
//
COMPOUND: COc1ccc(-c2[nH]c3ccc(C4CCN(C5CCN(CC6CCOC6)CC5)CC4)cc3c2C)cc1OC (stereo not shown)
TEST SYSTEM: human TLR7 (Homo sapiens)
DATA VALUE: 1.08
//
COMPOUND: COc1ccc(-c2[nH]c3ccc(C4CCN(C(=O)CN5CCN(C(C)C)CC5)CC4)cc3c2C(C)C)cc1OC
TEST SYSTEM: human TLR7 (Homo sapiens)
DATA VALUE: 0.011
//
COMPOUND: COc1ccc(-c2[nH]c3ccc(C4CCN(C5C[C@H]6CC[C@@H](C5)N6C)CC4)cc3c2C)cc1OC (stereo partly shown)
TEST SYSTEM: human TLR7 (Homo sapiens)
DATA VALUE: 0.072
//
COMPOUND: CCc1c(-c2ccc(OC)c(OC)c2)[nH]c2ccc(C3CCN(C(=O)CNC45CC6CC(CC(O)(C6)C4)C5)CC3)cc12
TEST SYSTEM: human TLR7 (Homo sapiens)
DATA VALUE: 0.28

Task: Return reported IC50; argument: COc1ccc(-c2[nH]c3ccc(C4CCN(C5CCN(Cc6cccs6)CC5)CC4)cc3c2C)cc1OC
Output: 0.163

Task: Moving on to the next compound: COc1ccc(-c2[nH]c3ccc(C4CCN(C5CCN(CCCC(=O)O)CC5)CC4)cc3c2C)cc1OC
Output: 3.75

====

target: human TLR9 (Homo sapiens, UniProt Q9NR96); assay: TLR9 inhibition reporter assay (HEK-Blue cells, SEAP reporter, ODN2006 stimulation); conditions: HEK-Blue cells overexpressing human TLR9, ODN2006 5 nM
Sequence (Q9NR96 26-1032): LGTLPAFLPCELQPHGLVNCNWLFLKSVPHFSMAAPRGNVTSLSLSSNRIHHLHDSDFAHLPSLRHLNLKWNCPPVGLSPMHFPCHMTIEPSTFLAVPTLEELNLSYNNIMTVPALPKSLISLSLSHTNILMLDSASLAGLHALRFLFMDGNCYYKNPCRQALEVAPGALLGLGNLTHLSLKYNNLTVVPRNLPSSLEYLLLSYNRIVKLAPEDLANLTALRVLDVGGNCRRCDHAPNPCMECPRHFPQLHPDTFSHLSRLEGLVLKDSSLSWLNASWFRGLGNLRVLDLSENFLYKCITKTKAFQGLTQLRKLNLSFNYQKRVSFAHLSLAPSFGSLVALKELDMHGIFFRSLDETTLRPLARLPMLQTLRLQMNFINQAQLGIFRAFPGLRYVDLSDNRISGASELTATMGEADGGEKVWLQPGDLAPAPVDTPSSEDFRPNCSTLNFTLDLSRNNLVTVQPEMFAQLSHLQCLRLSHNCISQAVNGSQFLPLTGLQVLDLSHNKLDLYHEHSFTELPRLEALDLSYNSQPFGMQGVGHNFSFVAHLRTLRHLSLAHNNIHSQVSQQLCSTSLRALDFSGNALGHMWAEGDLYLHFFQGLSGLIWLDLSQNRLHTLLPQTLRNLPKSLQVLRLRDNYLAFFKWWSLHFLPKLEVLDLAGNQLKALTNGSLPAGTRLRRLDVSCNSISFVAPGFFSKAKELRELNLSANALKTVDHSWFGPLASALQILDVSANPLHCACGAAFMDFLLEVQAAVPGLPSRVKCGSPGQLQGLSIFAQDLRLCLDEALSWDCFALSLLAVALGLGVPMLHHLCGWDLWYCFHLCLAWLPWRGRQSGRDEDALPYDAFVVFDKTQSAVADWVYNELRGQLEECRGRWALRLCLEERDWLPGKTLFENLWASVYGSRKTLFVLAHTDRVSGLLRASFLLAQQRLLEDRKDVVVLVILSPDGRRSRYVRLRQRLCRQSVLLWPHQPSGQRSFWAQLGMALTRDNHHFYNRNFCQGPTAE
Collected pIC50 values appear next to each entry.
Notebook: values listed as pIC50 are -log10 of the concentration (mol/L).

Look over these answered cases.
COMPOUND: CCC(CC)NC(=O)CN1CCC(c2ccc3[nH]c(-c4ccc(OC)c(OC)c4)c(CC(F)(F)F)c3c2)CC1 [Example 378]
TEST SYSTEM: human TLR9 (Homo sapiens, UniProt Q9NR96)
pIC50: 4.84
--
COMPOUND: COc1ccc(-c2[nH]c3ccc(C4CCN(C(=O)CN5CCN(C(C)C)CC5)CC4)cc3c2C(C)C)cc1OC [Example 240]
TEST SYSTEM: human TLR9 (Homo sapiens, UniProt Q9NR96)
pIC50: 5.86
--
COMPOUND: COc1ccc(-c2[nH]c3ccc(C4CCN(C(=O)CN5CCC[C@H](C(=O)N6CCCC6)C5)CC4)cc3c2C(C)C)cc1OC [Example 287]
TEST SYSTEM: human TLR9 (Homo sapiens, UniProt Q9NR96)
pIC50: 5.64

Let us move to another entry and its pIC50.
Task: Could you tell me which pIC50 is on file for COc1ccc(-c2[nH]c3ccc(C4CCN(C(=O)CN(C)C)CC4)cc3c2C(C)C)cc1OC [Example 209] ?
Output: 5.78
